Listing of entries alongside the reported Inhibitory rate % (PC-3).
System: PC-3
measurement.notes: Sulforhodamine B proliferation
Assay type: cell-based
measurement.setup: 10 μM, 72 h, SRB
Value and unit, in that order.

Prompt line: Consider the compound NC1(c2ccc(-c3nc4ccn5c(=O)[nH]nc5c4cc3-c3ccccc3)cc2)CCC1 [MK2206, reference compound] and give its measured Inhibitory rate % (PC-3).
Response line: 1.2%

Prompt line: Follow-up entry: C=C(C)n1c(=O)n(C(C)=O)c2ccc([N+](=O)[O-])cc21
Response line: 32.4%

Prompt line: Subsequent entry: C=C(C)n1c(=O)n(C(=O)CCC)c2ccc([N+](=O)[O-])cc21
Response line: 19.2%

Prompt line: Also check C=C(C)n1c(=O)n(C(=O)CCC)c2cc([N+](=O)[O-])ccc21
Response line: 8.2%
